Biological target: T1, CD96 extracellular region with His tag (CD96-His) (human, UniProt P40200 22-519)
T1 construct: also called CD96-ECD-His; Bio-CD96-His (biotin-labelled form)
T1 sequence: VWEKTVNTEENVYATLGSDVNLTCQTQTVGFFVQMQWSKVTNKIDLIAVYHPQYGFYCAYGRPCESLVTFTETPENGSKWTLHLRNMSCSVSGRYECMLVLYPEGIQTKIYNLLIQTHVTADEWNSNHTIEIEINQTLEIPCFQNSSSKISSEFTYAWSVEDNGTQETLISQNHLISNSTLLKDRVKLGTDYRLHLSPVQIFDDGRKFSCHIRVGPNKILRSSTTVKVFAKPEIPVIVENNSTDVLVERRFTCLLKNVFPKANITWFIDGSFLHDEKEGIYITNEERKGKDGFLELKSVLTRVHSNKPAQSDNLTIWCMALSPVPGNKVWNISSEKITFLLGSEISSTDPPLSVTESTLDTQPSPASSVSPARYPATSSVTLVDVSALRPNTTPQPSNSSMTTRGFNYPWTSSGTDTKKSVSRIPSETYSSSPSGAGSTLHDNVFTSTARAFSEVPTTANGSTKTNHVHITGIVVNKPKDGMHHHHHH
Assay: SPR (Biacore), antibody captured, CD96-ECD-His as mobile phase
Can you tell me pKd for the items I'm about to list?
In plain terms, pKd is the concentration in mol/L turned into minus its base-10 logarithm.

Problem: Provide pKd value for the following binder: h1721-010 (antibody, V domains shown, Only variable regions are tied to this name) VH: EVTLKESGPVLVKPTETLTLTCTVSGFSLSSYGVNWIRQPPGKALEWLGVIWGDGSTNYHSALISRLTISKDTSKSQVVLTMTNMDPVDTATYYCAKNYFYGSRYGYAMDSWGQGTTVTVSS VL: DIQMTQSPSSLSASVGDRVTITCRASENIYSSLAWYQQKPGKSPKLLVYNAKTLIEGVPSRFSGSGSGTDYTLTISSLQPEDFATYYCQHHYGTPYTFGGGTKVEIK
Result: 8.69

Problem: Return reported pKd. Input binder: h1721-003 (antibody, V domains shown, Only variable regions are tied to this name; also called M721-003) VH: EVTLKESGPVLVKPTETLTLTCTVSGFSLSSYGVNWIRQPPGKALEWLGVIWGDGSTNYHSALISRLTISKDTSKSQVVLTLTNMDPVDTATYYCAKNYFYGSRYGYAMDSWGQGTTVTVSS VL: DIQMTQSPSSLSASVGDRVTITCRASENIYSSLAWYQQKPGKAPKLLIYNAKTLIEGVPSRFSGSGSGTDFTLTISSLQPEDFATYYCQHHYGTPYTFGGGTKVEIK
Result: 8.79
